# experimental-details: Stabilization of d(CAATCGGATCGAATTCGATCCGATTG) DNA (unknown origin) assessed as binding constant at 1 uM by FRET assay
reported-endpoint: Kb (×10⁶ /M)
Number in ×10⁶ /M, nothing else.

Reference set (6 entries):
N=C(N)NCCCNC(=O)c1cc2c(NCCCCCN)c3c(c(NCCCCCN)c2o1)C(=O)c1ccccc1C3=O    0.01
N=C(N)NCCCNC(=O)c1cc2c(NCCNC(=N)N)c3c(c(NCCNC(=N)N)c2s1)C(=O)c1ccccc1C3=O    0.03
N=C(N)NCCCNC(=O)c1cc2c(NCCOCCN)c3c(c(NCCOCCN)c2s1)C(=O)c1ccccc1C3=O    0.03
N=C(N)NCCCNC(=O)c1cc2c(NCCCNC(=N)N)c3c(c(NCCCNC(=N)N)c2s1)C(=O)c1ccccc1C3=O    0.03
N=C(N)NCCNC(=O)c1cc2c(NCCNC(=N)N)c3c(c(NCCNC(=N)N)c2s1)C(=O)c1ccccc1C3=O    0.1
N=C(N)NCCCNC(=O)c1cc2c(NCCCCN)c3c(c(NCCCCN)c2s1)C(=O)c1ccccc1C3=O    0.02

Next up:
Data request, read-out Kb, for N=C(N)NCCNc1c2c(c(NCCNC(=N)N)c3sccc13)C(=O)c1ccccc1C2=O
0.1
